# IC50 annotations
target: Kras and SOS1 (biotin-tagged human Kras loaded with GDP, His-tagged human SOS1) (Homo sapiens, UniProt P01116, G12D); construct: made in house; host or cells: E. coli (stated for Kras only); assay: Protein-protein interaction inhibition between Kras and SOS1 (KrasGl2D-SOS PPI) using AlphaScreen; assay type: binding; details: AlphaScreen; biotin-tagged human Kras loaded with GDP, His-tagged human SOS1; read-out: KRAS G12D-SOS PPI IC50
Sequence (P01116 1-188 isoform P01116-2 G12D): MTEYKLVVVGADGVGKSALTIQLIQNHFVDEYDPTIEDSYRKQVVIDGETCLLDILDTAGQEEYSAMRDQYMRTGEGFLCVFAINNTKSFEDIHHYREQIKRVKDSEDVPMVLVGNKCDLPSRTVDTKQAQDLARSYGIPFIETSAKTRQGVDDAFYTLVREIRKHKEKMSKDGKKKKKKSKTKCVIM
Starred links: 1 amine or outer side, 2 acyl side, 3 side chain; linkers in the order of their positions; H or OH if unused. Positions of bridges follow the written chain, without caps; N, C: chain ends. Non-standard residues stand in square brackets, D forms with d. Residues, ends and D or L forms follow the SMILES beside them. *: point of attachment. hPhe(3-Cl-4-CF3) = N[C@@H](CCc1ccc(C(F)(F)F)c(Cl)c1)C(=O)O; hPhe(4-CF3) = N[C@@H](CCc1ccc(C(F)(F)F)cc1)C(=O)O; NMePhe(4-Cl) = CN[C@@H](Cc1ccc(Cl)cc1)C(=O)O; hPhe(4-Cl) = N[C@@H](CCc1ccc(Cl)cc1)C(=O)O; NMedβ3hAla = C[C@H](CC(=O)[*:2])N(C)[*:1]; Abu(4,4,4-F3) = N[C@@H](CC(F)(F)F)C(=O)O; NMeGly(cPent) = CN[C@H](C(=O)O)C1CCCC1; Met(O2) = CS(=O)(=O)CC[C@H](N)C(=O)O; NMeCha = CN[C@@H](CC1CCCCC1)C(=O)O; NMehLeu = CN[C@@H](CCC(C)C)C(=O)O; NMeChg = CN[C@H](C(=O)O)C1CCCCC1; NMeF = CN[C@@H](Cc1ccccc1)C(=O)O; NMeD = CN[C@@H](CC(=O)O)C(=O)O; NMeL = CN[C@@H](CC(C)C)C(=O)O; NEtAla = CCN[C@@H](C)C(=O)O; NMeV = CN[C@H](C(=O)O)C(C)C; d(β3hA) = C[C@@H](N)CC(=O)O; NMeA = CN[C@@H](C)C(=O)O; Piperidide = C1CCN(*)CC1; Pyrrolidide = C1CCN(*)C1; dNMeA = CN[C@H](C)C(=O)O; Ac5c = NC1(C(=O)O)CCCC1; Aze = O=C(O)[C@@H]1CCN1; Thp = NC1(C(=O)O)CCOCC1; X27 = Clc1ccccc1C*; Sar = CNCC(=O)O
experimental-readout: IC50 (µM)

• CC[C@H](C)[C@@H]1NC(=O)[C@H](C)N(C)C(=O)C[C@@H](C)NC(=O)[C@H](C(C)C)N(C)C(=O)C2(CCCC2)NC(=O)[C@@H]2CCCN2C(=O)[C@H](CCc2ccc(C(F)(F)F)c(Cl)c2)NC(=O)[C@@H](C)N(C)C(=O)[C@H](CC2CCCCC2)N(C)C(=O)[C@@H]2CCN2C(=O)[C@H](Cc2ccccc2)N(C)C1=O [Compound 2019] (cyclo([Ac5c][NMeV][d(β3hA)][NMeA]I[NMeF][Aze][NMeCha][dNMeA][hPhe(3-Cl-4-CF3)]P)) = 0.11
• CC[C@H](C)[C@@H]1NC(=O)[C@H](C2CCCC2)N(C)C(=O)C[C@@H](C(=O)N2CCCCC2)N(C)C(=O)[C@H](C2CCCCC2)N(C)C(=O)C2(CCCC2)NC(=O)[C@@H]2CCCN2C(=O)[C@H](CCc2ccc(C(F)(F)F)c(Cl)c2)NC(=O)CN(C)C(=O)[C@H](CC2CCCCC2)N(C)C(=O)CN(C)C(=O)CN(C)C1=O [Compound 1835] ([NMeGly(cPent)]I[Sar][Sar][NMeCha][Sar][hPhe(3-Cl-4-CF3)]P[Ac5c][NMeChg][NMeD]-Piperidide; lactam N-11) = 0.0011
• CC(C)C[C@H]1C(=O)N[C@@H](CCS(C)(=O)=O)C(=O)N(C)CC(=O)N(C)CC(=O)N(C)[C@@H](CC2CCCCC2)C(=O)N(C)CC(=O)N[C@@H](CCc2ccc(C(F)(F)F)c(Cl)c2)C(=O)N2CCC[C@H]2C(=O)NC2(CCCC2)C(=O)N(C)[C@@H](C2CCCCC2)C(=O)N(C)[C@H](C(=O)N2CCCCC2)CC(=O)N1C [Compound 283] ([NMeL][Met(O2)][Sar][Sar][NMeCha][Sar][hPhe(3-Cl-4-CF3)]P[Ac5c][NMeChg][NMeD]-Piperidide; lactam N-11) = 0.0068
• CC[C@H](C)[C@@H]1NC(=O)[C@H](CC(C)C)N(C)C(=O)C[C@@H](C(=O)N2CCCCC2)N(C)C(=O)[C@H](C(C)C)N(C)C(=O)C2(CCOCC2)NC(=O)[C@@H]2CCCN2C(=O)[C@H](CCc2ccc(Cl)cc2)NC(=O)CN(C)C(=O)[C@H](CC2CCCCC2)N(C)C(=O)CN(C)C(=O)CN(C)C1=O [Compound 448] ([NMeL]I[Sar][Sar][NMeCha][Sar][hPhe(4-Cl)]P[Thp][NMeV][NMeD]-Piperidide; lactam N-11) = 0.091
• CC(C)C[C@H]1C(=O)N[C@@H](CC(F)(F)F)C(=O)N(C)[C@@H](C)C(=O)N2CC[C@H]2C(=O)N(C)[C@@H](CC2CCCCC2)C(=O)N(C)CC(=O)N[C@@H](CCc2ccc(C(F)(F)F)c(Cl)c2)C(=O)N2CCC[C@H]2C(=O)NC2(CCCC2)C(=O)N(C)[C@@H](C(C)C)C(=O)N(C)[C@H](C(=O)N2CCCCC2)CC(=O)N1C [Compound 1864] ([NMeL][Abu(4,4,4-F3)][NMeA][Aze][NMeCha][Sar][hPhe(3-Cl-4-CF3)]P[Ac5c][NMeV][NMeD]-Piperidide; lactam N-11) = 0.048
• CC[C@H](C)[C@@H]1NC(=O)[C@H](C)N(C)C(=O)C[C@@H](C(=O)N2CCCC2)NC(=O)[C@H](CC(C)C)NC(=O)[C@H](Cc2ccccc2)N(C)C(=O)[C@H](CC(C)C)NC(=O)[C@H](CCc2ccc(C(F)(F)F)cc2)NC(=O)CN(C)C(=O)[C@H](Cc2ccc(Cl)cc2)N(C)C(=O)CN(C)C(=O)CN(C)C1=O [Compound 372] ([NMeA]I[Sar][Sar][NMePhe(4-Cl)][Sar][hPhe(4-CF3)]L[NMeF]LD-Pyrrolidide; lactam N-11) = 0.13
• CC[C@H](C)[C@@H]1NC(=O)[C@H](C)N(C)C(=O)C[C@@H](C(=O)N2CCCCC2)N(C)C(=O)[C@H](C2CCCCC2)N(C)C(=O)C2(CCCC2)NC(=O)[C@@H]2CCCN2C(=O)[C@H](COCc2ccccc2Cl)NC(=O)CN(C)C(=O)[C@H](CC2CCCCC2)N(C)C(=O)CN(C)C(=O)CN(C)C1=O [Compound 2043] ([NMeA]I[Sar][Sar][NMeCha][Sar]S(X27)P[Ac5c][NMeChg][NMeD]-Piperidide; lactam N-11) = 0.012
• CC[C@H](C)[C@@H]1NC(=O)[C@H](CC(C)C)N(C)C(=O)C[C@@H](C)N(C)C(=O)[C@H](CCC(C)C)N(C)C(=O)C2(CCCC2)NC(=O)[C@@H]2CCCN2C(=O)[C@H](CCc2ccc(C(F)(F)F)c(Cl)c2)NC(=O)CN(C)C(=O)[C@H](CC2CCCCC2)N(C)C(=O)CN(C)C(=O)CN(C)C1=O [Compound 22] (cyclo([Ac5c][NMehLeu][NMedβ3hAla][NMeL]I[Sar][Sar][NMeCha][Sar][hPhe(3-Cl-4-CF3)]P)) = 0.11
• CC[C@H](C)[C@@H]1NC(=O)[C@H](C)N(CC)C(=O)C[C@@H](C)NC(=O)[C@H](C(C)C)N(C)C(=O)C2(CCCC2)NC(=O)[C@@H]2CCCN2C(=O)[C@H](CCc2ccc(C(F)(F)F)c(Cl)c2)NC(=O)CN(C)C(=O)[C@H](CC2CCCCC2)N(C)C(=O)CN(C)C(=O)CN(C)C1=O [Compound 196] (cyclo([Ac5c][NMeV][d(β3hA)][NEtAla]I[Sar][Sar][NMeCha][Sar][hPhe(3-Cl-4-CF3)]P)) = 0.013
